Where do these numbers come from? They come from the supplement of paper PMC8728848.

- test.target: Gal6S(b1-4)Glc
- test.name: glycan array binding signal (z-score within array); higher = stronger binding
- test.conditions: glycan notation: IUPAC condensed, linker removed
This excerpt belongs to a sample that is enriched for the strongest signals.
Where glycan array binding signal (z-score) equals or exceeds -0.2, the correct label is Fulfilled; where it does not, the label is Not fulfilled.

Some solved cases for reference:
Surfactant Protein D (Human); Neck + Carbohydrate Recognition Domain (NCRD) (Homo sapiens) (protein) MLLFLLSALVLLTQPLGYLEAEMKTYSHRTMPSACTLVMCSSVESGLPGRDRDGREGPRGEKGDPGLPGAAGQAGMPGQAGPVGPKGDNGSVGEPGPKGDTGPSGPPGPPGVPGPAGREGALGKQGNIGPQGKPGPKGEAGPKGEVGAPGMQGSAGARGLAGPKGERGVPGERGVPGNTGAAGSAGAMGPQGSPGARGPPGLKGDKGIPGDKGAKGESGLPDVASLRQQVEALQGQVQHLQAAFSQYKKVELFPNGQSVGEKIFKTAQFVKPFTEAQLLCTQAGGQLASPRSAAENAALQQLVVAKNEAAFLSMTDSKTEGKFTYPTGESLVYSNWAPGEPNDDGGSEDCVEIFTNGKWNDRACGEKRLVVCEF    Not fulfilled
LlpB (Pseudomonas fluorescens) (protein) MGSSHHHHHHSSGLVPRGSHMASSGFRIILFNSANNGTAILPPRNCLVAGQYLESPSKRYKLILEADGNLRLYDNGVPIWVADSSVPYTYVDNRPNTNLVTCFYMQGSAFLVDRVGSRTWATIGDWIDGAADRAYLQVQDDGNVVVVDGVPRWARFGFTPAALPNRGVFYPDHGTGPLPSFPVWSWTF    Not fulfilled
Flo5 (Saccharomyces cerevisiae), P38894 (protein) MGSSHHHHHHSSGLVPRGSHMSGATEACLPAGQRKSGMNINFYQYSLKDSSTYSNAAYMAYGYASKTKLGSVGGQTDISIDYNIPCVSSSGTFPCPQEDSYGNWGCKGMGACSNSQGIAYWSTDLFGFYTTPTNVTLEMTGYFLPPQTGSYTFSFATVDDSAILSVGGSIAFECCAQEQPPITSTNFTINGIKPWDGSLPDNITGTVYMYAGYYYPLKVVYSNAVSWGTLPISVELPDGTTVSDNFEGYVYSFDDDLSQSNCTIPDPSIH    Fulfilled
AT3G09350(27) (Arabidopsis thaliana), Q84J81 (protein) MAKDGPNWDGLLKWSLSHADGTRPTRQLSEEDRKWFMEAMQSQTVDVVKRMKEITLVMQTPEQVLVEHGVTPEDIQDLLDELQEHVESIDMANDLHSIGGLVPLLSFLKNSHANIRAKAADVVSTIVQNNPRSQELVMETNALESLLSNFTSDTDIHARTQALGAISSLIRHNKPGVTAFKLANGYAGLRDALASDSVRFQRKALNLLQYLLQEDDSDRSIATGLGFPRVMMHLASSDDAEIREAALRGLLELSREKNDGSSSIDKSDEKLRQLLEERIKGITLMSQEDLETVKEERQLVDLLWSICYNEPSSLREKGLVVLPGEDALPPDVASKLFEPPLRASAANRNATEKKDEPMKLLGP    Fulfilled

Determine whether measured glycan array binding signal (z-score) meets or exceeds -0.2 for RsaA-N-term (Caulobacter crescentus), P35828 (protein) MAYTTAQLVTAYTNANLGKAPDAATTLTLDAYATQTQTGGLSDAAALTNTLKLVNSTTAVAIQTYQFFTGVAPSAAGLDFLVDSTTNTNDLNDAYYSKFAQENRFINFSINLATGAGAGATAFAAAYTGVSYAQTVATAYDKIIGNAVATAAGVDVAAAVAFLSRQANIDYLTAFVRANTPFTAAADIDLAVKAALIGTILNAATVSGIGGYATATAAMINDLSDGALSTDNAAGVNLFTAYPSSGVSGSTLSLTTGTDTLTGTANNDTFVAGEVAGDGSGWSHPQFEKGG Not fulfilled
